Measured relative integration efficiency (log2) values are reported for all entries that follow.
# Test system: VchCAST RNA-guided transposition machinery (E. coli BL21(DE3) host, lacZ target)
# Test: relative integration efficiency (T-LR orientation) vs wild-type transposon end (log2 (normalized fold change)); transposon end mutated: right end (5 bp flank + 75 bp right end); higher = more efficient transposition
Output spec: single numeric token, no unit.

Known results for sequences:
sequence=ACATTTGTTGATACAACCATCAAATGGTAATTACACCCCTAAATTGATAATTATCACACCCAATTTAACTATAACGCTCTGATCATAGTCAGACCAACATTGCTACGACCCGTATTCGCACCGACAC measured_attribute="relative integration efficiency (log2)" reported_result=-2.01
sequence=ACATTTGTGGATACAACCATAAAATGATAATTACACCCATAAATTTATAATTATCACACCCAATTTAACTATAACGCTCTGATCATAGTCAGACCAACATTGCTACGACCCGTATTCGCACCGACAC measured_attribute="relative integration efficiency (log2)" reported_result=1.8
sequence=CAAAATGTAAAAACAACCATAAAATGATAATTAGAAACCATACGCTGAAATAAAAACAACCATACCTTGAAATTGCTTATAAAGTGTACAACACTTGAGAAAGTTTACTACAGGTATGCACCGACAC measured_attribute="relative integration efficiency (log2)" reported_result=2.48

Look at this sequence and give its reported relative integration efficiency (log2). ACATTTGTTGATACAACCATAAAATGATCATTACACCCATCAATTGATAATTATCCCACCCCATTTAACTATAACGCTCTGATCATAGTCAGACCAACATTGCTACGACCCGTATTCGCACCGACAC
1.04

Look at this sequence and give its reported relative integration efficiency (log2). ACATTTGTTGATACCACCATAAAATGATAATTCCACCCATACATTGATAATTATCACACCCAATTTAACTATAACGCTCTGATCATAGTCAGACCAACATTGCTACGACCCGTATTCGCACCGACAC
0.789

* * *

Measured relative integration efficiency (log2) values are reported for all entries that follow.
# System: VchCAST RNA-guided transposition machinery (E. coli BL21(DE3) host, lacZ target)
# Test: relative integration efficiency (T-RL orientation) vs wild-type transposon end (log2 (normalized fold change)); transposon end mutated: right end (5 bp flank + 75 bp right end); higher = more efficient transposition
Output spec: single numeric token, no unit.

Known results for sequences:
sequence=ACATTTGTTGATACAACCCGCCCCGTCGCCGGCACAAACGCCCGGTCGCCGGCGACACAAACGCCCGGTCGCGGTAAGAGGATCATAGTCAGACCAACATTGCTACGACCCGTATTCGCACCGACAC measured_attribute="relative integration efficiency (log2)" reported_result=-8.51
sequence=ACATTTGTTGATACAACCATACCATGATAATTACACCCATACCTTGATAATTATCACACCCATACCTTGATATTGCCTCTGATCATAGTCAGACCAACATTGCTACGACCCGTATTCGCACCGACAC measured_attribute="relative integration efficiency (log2)" reported_result=-3.2
sequence=ACATTTGTTGATACAACCATAAAATGATAATTACTCTGATCATAGTCAGACCAACATTGCTACGACCCGTATTCGCACCACCCATAAATTGATAATTATCACACCCATAAATTGATATTGCCGACAC measured_attribute="relative integration efficiency (log2)" reported_result=-2.77
sequence=ACATTTGTTGATACAACCATAAAATGATAATTACACCCATAAATTGATAATTATCCACACCATAAATTGATATTGCCTCTGATCATAGTCAGACCAACATTGCTACGACCCGTATTCGCACCGACAC measured_attribute="relative integration efficiency (log2)" reported_result=-0.495

Look at this sequence and give its reported relative integration efficiency (log2). ACATTTGTTGATACAACCATAAAATTCGCCGGCACAAACGCCCGGTCGCCGGCGACACAAACGCCCGGTCGCGGTAAGAGGATCATAGTCAGACCAACATTGCTACGACCCGTATTCGCACCGACAC
-4.45

* * *

Measured relative integration efficiency (log2) values are reported for all entries that follow.
# Test system: VchCAST RNA-guided transposition machinery (E. coli BL21(DE3) host, lacZ target)
# Test: relative integration efficiency (T-RL orientation) vs wild-type transposon end (log2 (normalized fold change)); transposon end mutated: left end; higher = more efficient transposition
Output spec: single numeric token, no unit.

Known results for sequences:
sequence=AATGTTGTTGATGCAACCATAAAGTGATATTTAATAATTATTTATAATCAGCAACTTAACCACAAACAACCATATATTGATATCTCAACAAAACAACCATAAGTTGATATTTTTGTGAATCGAGTATTTCAGCAAAACTACTGCAGTAAGAA measured_attribute="relative integration efficiency (log2)" reported_result=-1.37
sequence=AATGTTGTTGATGCAACCATAAAGTGATATTTAATAATTATTTATAATCATACCAGGCCAACACCCCACCAACGCGCGGTCGCGAGACACCCCACCAACGCCTGGTCGCGGGGGTGTCCGATCTGATTTCAGCAAAACTACTGCAGTAAGAA measured_attribute="relative integration efficiency (log2)" reported_result=-6.02

Look at this sequence and give its reported relative integration efficiency (log2). AATGTTGTTGATGCAACCATAAAGTGATATTTACCGACTGTCTGCCATCCGCCGCTGAACCGCAGCCCAACCATATATTGATATCTCACAAAACAACCATAAGTTGATATTTTTGTGAATCGAGTATTTCAGCAAAACTACTGCAGTAAGAA
-2.98

Look at this sequence and give its reported relative integration efficiency (log2). AATGTTGTTGATGCAACCATAAAGTGATATTTAATAATTCAACCATAAAGTGATATTTAACTTAACCCAACCATATATTGATATCTCACAAAACAACCATAAGTTGATATTTTTGTGAATCGAGTATTTCAGCAAAACTACTGCAGTAAGAA
-4.15

Look at this sequence and give its reported relative integration efficiency (log2). AATGTTGTTGATGCAACCATAAAGTGATATTTAATAATTATTTATAAGACTACCAGGCCAACACCCCACCAACGCGCGGTCGCGAGACACCCCACCAACGCCTGGTCGCGGGGGTGTCCGATCTGATTTCAGCAAAACTACTGCAGTAAGAA
-6.62

Look at this sequence and give its reported relative integration efficiency (log2). TTTTGTGTTGAAACAACCATAAAGTGATAACAACGAATCAATTAAAATCATAGGCTTAATCGAAAAACAACCATATCTTGATATCGCATAAAACAACCATAAGTTGATATTTTGGTGAAACGAGTATTTCAGCAAAACTACTGCAGTAAGAA
-0.949

Look at this sequence and give its reported relative integration efficiency (log2). AATGTTGTTGATGCAACCATAAAGTGATATTTAATAATTATTTACAACCATATATTGATATCTCTAATCAGCAACTTAACCACAAAAACAAAACAACCATAAGTTGATATTTTTGTGAATCGAGTATTTCAGCAAAACTACTGCAGTAAGAA
-4.75

Look at this sequence and give its reported relative integration efficiency (log2). AATGTTGTTGATGTAATTATCATTTTATGGTTGATAATTATTTATAATCAGCAACTTAACCACAAAACAACCATAAAATGATAATTATTTTGTCAACCATAAAATGATAATTATGTGAATCGAGTATTTCAGCAAAACTACTGCAGTAAGAA
-8.78

Look at this sequence and give its reported relative integration efficiency (log2). AATGTTGTTGATGCAACCATAAAGTGATATTTAATAATTATTGCGCCGACTACCAGGCCAACACCCCACCAACGCGCGGTCGCGAGACACCCCACCAACGCCTGGTCGCGGGGGTGTCCGATCTGATTTCAGCAAAACTACTGCAGTAAGAA
-6.73

* * *

# Test system: VchCAST RNA-guided transposition machinery (E. coli BL21(DE3) host, lacZ target)
# Test: relative integration efficiency (T-RL orientation) vs wild-type transposon end (log2 (normalized fold change)); transposon end mutated: right end (5 bp flank + 75 bp right end); higher = more efficient transposition
Measured relative integration efficiency (log2) values are reported for all entries that follow.
Output spec: single numeric token, no unit.

sequence=ACAAAACTTGATACAACCATAAAATGATAATTACACCCATAAATTGATAATTATCACACCCATAAATTGATATTGCCTCTGATCATAGTCAGACCAACATTGCTACGACCCGTATTCGCACCGACAC reported_result=-6.59
sequence=ACATTTGTTGATACAACCATAAGTTGATATTTTCACCCATAAATTGATAATTATCACACCCATAAATTGATATTGCCTCTGATCATAGTCAGACCAACATTGCTACGACCCGTATTCGCACCGACAC reported_result=0.0993

Look at this sequence and give its reported relative integration efficiency (log2). ACATTTGTTGATACAACCATAAAAAGATAATTACACCCATAAATTGATAATGATGACACCGAATTTAACTATAACGCTCTGATCATAGTCAGACCAACATTGCTACGACCCGTATTCGCACCGACAC
-1.33
